B1: EF-hand domain-containing protein 1 (Homo sapiens), Q5JVL4 (parent)
chain: MVSNPVHGLPFLPGTSFKDSTKTAFHRSQTLSYRNGYAIVRRPTVGIGGDRLQFNQLSQAELDELASKAPVLTYGQPKQAPPADFIPAHVAFDKKVLKFDAYFQEDVPMSTEEQYRIRQVNIYYYLEDDSMSVIEPVVENSGILQGKLIKRQRLAKNDRGDHYHWKDLNRGINITIYGKTFRVVDCDQFTQVFLESQGIELNPPEKMALDPYTELRKQPLRKYVTPSDFDQLKQFLTFDKQVLRFYAIWDDTDSMYGECRTYIIHYYLMDDTVEIREVHERNDGRDPFPLLMNRQRVPKVLVENAKNFPQCVLEISDQEVLEWYTAKDFIVGKSLTILGRTFFIYDCDPFTRRYYKEKFGITDLPRIDVSKREPPPVKQELPPYNGFGLVEDSAQNCFALIPKAPKKDVIKMLVNDNKVLRYLAVLESPIPEDKDRRFVFSYFLATDMISIFEPPVRNSGIIGGKYLGRTKVVKPYSTVDNPVYYGPSDFFIGAVIEVFGHRFIILDTDEYVLKYMESNAAQYSPEALASIQNHVRKREAPAPEAESKQTEKDPGVQELEALIDTIQKQLKDHSCKDNIREAFQIYDKEASGYVDRDMFFKICESLNVPVDDSLVKELIRMCSHGEGKINYYNFVRAFSN
partner: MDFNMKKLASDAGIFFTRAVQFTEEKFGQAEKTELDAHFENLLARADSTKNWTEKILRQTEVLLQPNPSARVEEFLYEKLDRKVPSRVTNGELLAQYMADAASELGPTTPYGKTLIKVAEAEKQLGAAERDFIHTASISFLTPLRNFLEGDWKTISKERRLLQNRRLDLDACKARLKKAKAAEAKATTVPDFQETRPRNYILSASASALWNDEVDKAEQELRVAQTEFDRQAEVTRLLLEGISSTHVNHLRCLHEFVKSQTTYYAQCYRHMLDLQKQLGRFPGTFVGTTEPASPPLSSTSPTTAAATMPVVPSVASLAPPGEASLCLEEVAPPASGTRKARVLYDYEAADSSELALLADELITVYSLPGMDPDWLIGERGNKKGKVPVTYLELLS

Variants of: B1
Details: with shlb2_human SH3GLB2, Q9NR46
ENDPOINT_LABEL: effect of a mutation on the interaction

# MUTATION_ID, ENDPOINT_LABEL, MEASURED
data = [
    ("R159W", "effect of a mutation on the interaction", "with no effect"),
    ("M448T", "effect of a mutation on the interaction", "with no effect"),
]

Recorded values, source IntAct's records for PubMed 25910212.
